Tested on: DU-145 prostate
Assay: NCI-60 one-dose screen, 48 h (100 = growth as untreated, 0 = no growth, -100 = all killed)
Settings: 10 µM unless noted
About 83,000 compounds went through this panel and 20% of them were active in at least one assay; those are over-represented in the sample as a whole.
Items are presented alongside their recorded growth.
State the answer as a number, implicitly in %.

>  <compound.structure.string>
C#CCN1C(=O)c2ccccc2N(CC#C)C12CCN(Cc1cn(CC(=O)Nc3ccccc3C(N)=O)nn1)CC2

>  <unit.descriptor>
%

>  <growth>
98.7

$$$$
>  <compound.structure.string>
[2H]c1nc(Nc2ncc3cc(C(=O)N(C)C)n(C4CCCC4)c3n2)c([2H])c([2H])c1N1C([2H])([2H])C([2H])([2H])NC([2H])([2H])C1([2H])[2H]

>  <unit.descriptor>
%

>  <growth>
88.4

$$$$
>  <compound.structure.string>
O=C(Nc1cc(=O)[nH]c(=O)[nH]1)C(Cl)Cl

>  <unit.descriptor>
%

>  <growth>
113

$$$$

Next up:
Q: Name the reported growth value associated with the compound O=c1[nH]c2ccccc2cc1-c1nc2ccc(Cl)cc2[nH]1
Result: 38.2

###

System: SF-539 CNS
Assay: NCI-60 one-dose screen, 48 h (100 = growth as untreated, 0 = no growth, -100 = all killed)
Conditions: 10 µM unless noted
This is part of a sample that, as a whole, favours compounds with a hit. Of some 83,000 tested, about 20% had one in any assay.
measured.endpoint: growth (%)
State the answer as a number, implicitly in %.

Solved entries:
>  <molecule>
C#C[C@@]1(O)[C@@H](CO)O[C@@H](n2ccc3c(N)ncnc32)[C@@H]1O

>  <reported>
8.04

$$$$
>  <molecule>
COc1cc(-c2cn(-c3ccc(Cl)c(Cl)c3)c(=O)[nH]2)cc(OC)c1OC

>  <reported>
91.3

$$$$
>  <molecule>
CC(=O)ON1CCCC(P(=O)(OCOC(=O)C(C)(C)C)OCOC(=O)C(C)(C)C)C1=O (centres undefined)

>  <reported>
11.3

$$$$
>  <molecule>
C#C[C@@]1(O)[C@@H](CO)O[C@@H](n2cc(Cl)c3c(N)ncnc32)[C@@H]1O

>  <reported>
-54.3

$$$$
>  <molecule>
COc1ccc(NC(=O)c2ccc(Nc3ncnc4[nH]c(C)c(C)c34)cc2)cc1

>  <reported>
97.5

$$$$
>  <molecule>
CCOC(=O)c1c(C)nc2c(c1N)/C(=C/c1ccc[nH]1)C(=O)N2Cc1ccc(C(F)(F)F)cc1

>  <reported>
40.4

$$$$
>  <molecule>
COc1cc(C(C)c2ccc3c(ccn3C)c2)cc(OC)c1OC (centres undefined)

>  <reported>
-6.4

$$$$
>  <molecule>
COc1ccc(C(=O)c2cc(OC)c(C)c(OC)c2)cc1OC(=O)CCl

>  <reported>
-7.95

$$$$

Q: Form entry - test system: SF-539 CNS; read-out: growth; molecule: COc1cc(C2=NN(C(C)=O)C(c3cccc(Nc4ccnc5cc(C(F)(F)F)ccc45)c3)C2)cc(OC)c1OC (centres undefined)
Result: 76.6

###

Tested on: HT29 colon
Experiment: NCI-60 one-dose screen, 48 h (100 = growth as untreated, 0 = no growth, -100 = all killed)
Settings: 10 µM unless noted
The panel holds about 83,000 compounds, 20% with a hit somewhere; the sample as a whole holds those more often.
Items are presented alongside their recorded growth.
State the answer as a number, implicitly in %.

Solved entries:
>  <compound.structure.string>
O=C(Nc1cccc(-c2cccc(F)c2)c1)C1CCN(Cc2cccc3cccnc23)CC1

>  <unit.descriptor>
%

>  <reported>
0.443

$$$$
>  <compound.structure.string>
COc1cc(-c2cn(-c3ccc(Cl)c(Cl)c3)c(=O)[nH]2)cc(OC)c1OC

>  <unit.descriptor>
%

>  <reported>
102

$$$$
>  <compound.structure.string>
Nc1c(C(=O)Nc2ccccc2Cl)sc2nc3c(cc12)CN(Cc1ccccc1)CC3

>  <unit.descriptor>
%

>  <reported>
101

$$$$
>  <compound.structure.string>
COC(=O)c1cncc(C(=O)Nc2ccc(-n3cnc4ccccc43)cc2)c1

>  <unit.descriptor>
%

>  <reported>
96.5

$$$$

Q: Form entry - test system: HT29 colon; read-out: growth; molecule: C=C1C(=O)O[C@H]2[C@H]1CC/C(COC(=O)NCC(=O)Nc1ccc(OC)c(C(N)=O)c1O)=C\CC[C@@]1(C)O[C@@H]21
Result: 18.8

###

Tested on: MALME-3M melanoma
Assay: NCI-60 one-dose screen, 48 h (100 = growth as untreated, 0 = no growth, -100 = all killed)
Settings: 10 µM unless noted
The panel holds about 83,000 compounds, 20% with a hit somewhere; the sample as a whole holds those more often.
Items are presented alongside their recorded growth.
State the answer as a number, implicitly in %.

Solved entries:
>  <molecule>
COc1cc(/C=C/C(=O)/C=C/c2cc3ccc(Cl)cc3[nH]c2=O)ccc1O

>  <reported>
101

$$$$
>  <molecule>
O=C(CN1N=C(c2ccc(F)cc2)CCC1=O)Nc1nc2ccccc2s1

>  <reported>
-70.4

$$$$
>  <molecule>
Nc1c(C(=O)c2ccccc2)sc2nc(-c3cc4ccccc4o3)cc(-c3ccc(Cl)cc3)c12

>  <reported>
101

$$$$

Q: Name the reported growth value associated with the molecule COc1ccc2[nH]c(=O)c(/C=C/C(=O)/C=C/c3ccc(O)c(OC)c3)cc2c1
Result: 52.8

Q: Same thing, different molecule: CC(=O)c1ccc(NC(=O)CSc2nnc(-c3cc(-c4ccc(C)cc4)nc4ccccc34)o2)cc1
Result: -5.39

Q: Same thing, different molecule: Nc1c(C(=O)Nc2ccccn2)sc2nc3c(cc12)C(=O)CCC3
Result: 58.2

Q: Same thing, different molecule: C=CCn1c(SCC(=O)Nc2ccc(C(=O)/C=C/c3ccc(Cl)cc3)cc2)nnc1-c1cc(OC)c(OC)c(OC)c1
Result: 115

###

System: T-47D breast
Test: NCI-60 one-dose screen, 48 h (100 = growth as untreated, 0 = no growth, -100 = all killed)
Settings: 10 µM unless noted
This is part of a sample that, as a whole, favours compounds with a hit. Of some 83,000 tested, about 20% had one in any assay.
Items are presented alongside their recorded growth.
State the answer as a number, implicitly in %.

Solved entries:
>  <compound.structure.string>
CS(=O)(=O)O[C@@H]1C(=O)N(c2cc3c4ccccc4ccc3c3ccccc23)[C@H]1c1ccc(F)cn1

>  <measured.target>
T-47D breast

>  <unit.descriptor>
%

>  <reported>
32.5

$$$$
>  <compound.structure.string>
C=C(C)[C@@H]1CC[C@]2(C(=O)OCCOCCOCC[P+](c3ccccc3)(c3ccccc3)c3ccccc3)CC[C@]3(C)[C@H](CC[C@@H]4[C@@]5(C)CC[C@H](C)C(C)(C)[C@@H]5CC[C@]43C)[C@@H]12

>  <measured.target>
T-47D breast

>  <unit.descriptor>
%

>  <reported>
-68.5

$$$$
>  <compound.structure.string>
Nc1ccc(C(=O)Nc2cccc(C(=O)Nc3ccc4c(O)c(N=Nc5ccc(N=Nc6ccc(S(=O)(=O)O)cc6)cc5)c(S(=O)(=O)O)cc4c3)c2)cc1

>  <measured.target>
T-47D breast

>  <unit.descriptor>
%

>  <reported>
108

$$$$

Next up:
Q: Name the reported growth value associated with the molecule C=C(C)[C@@H]1CC[C@]2(C(=O)NCCCO)CC[C@]3(C)[C@H](CC[C@@H]4[C@@]5(C)CCCNC(C)(C)[C@@H]5CC[C@]43C)[C@@H]12
Result: 43.8

###

System: OVCAR-4 ovarian
Experiment: NCI-60 one-dose screen, 48 h
Conditions: 10 µM unless noted
About 83,000 compounds went through this panel and 20% of them were active in at least one assay; those are over-represented in the sample as a whole. The source made the active and inactive calls. The calls were made as follows: active = growth percent below 10; inactive = the rest.
Response enum: active, inactive

Past entries and their recorded results:
>  <compound.structure.string>
COc1cc(NC(=O)c2cc(O)c(C/C=C(\C)CCC=C(C)C)c(O)c2)cc2c1O[C@]1(C)CC[C@@H](O)C(C)(C)[C@H]1C2

>  <assigned.label>
inactive

$$$$
>  <compound.structure.string>
Cc1cc(C)cc(Nc2nccc(-c3c(-c4ccc(F)cc4)ncn3C3CCNCC3)n2)c1

>  <assigned.label>
inactive

$$$$

Q: Outcome? O=C(Nc1cc(Nc2ncccc2-c2ncnc3nc[nH]c23)ccc1F)c1cc(C(F)(F)F)cc(C(F)(F)F)c1
Result: active

Q: Same thing, different compound: Cc1[nH]c2ncnc(Oc3ccc(NC(=O)Nc4ccc(Cl)c(C(F)(F)F)c4)cc3)c2c1C
Result: inactive

###

System: MDA-MB-435 melanoma
Experiment: NCI-60 one-dose screen, 48 h (100 = growth as untreated, 0 = no growth, -100 = all killed)
Conditions: 10 µM unless noted
The panel holds about 83,000 compounds, 20% with a hit somewhere; the sample as a whole holds those more often.
Could you label it YES if measured growth is 60% or higher, and NO otherwise?

Past entries and their recorded results:
>  <compound>
CC(=O)c1cnc(-c2ccccc2)nc1CBr

>  <assigned.label>
YES

$$$$
>  <compound>
CC(=O)c1ccc(NC(=O)CSc2nnc(-c3cc(-c4ccc(C)cc4)nc4ccccc34)o2)cc1

>  <assigned.label>
YES

$$$$
>  <compound>
N#C/C(=C/c1ccc(O)c([N+](=O)[O-])c1)c1nc(-c2ccc([N+](=O)[O-])cc2)cs1

>  <assigned.label>
NO

$$$$
>  <compound>
CN(C)[C@@H]1C(=O)C(C(N)=O)=C(O)[C@@]2(O)C(=O)C3=C(O)c4c(O)cc(CN5CCc6ccccc6C5)c(Cl)c4C[C@H]3C[C@@H]12

>  <assigned.label>
NO

$$$$

Q: State whether the measured growth reaches 60%, counting equality as reaching it, for O=C(Nc1cc(Nc2ncccc2-c2ncnc3nc[nH]c23)ccc1F)c1cc(C(F)(F)F)cc(C(F)(F)F)c1
Result: NO

Q: Same thing, different compound: Nc1c(C(=O)Nc2ccccn2)sc2nc3c(cc12)CCCCCC3
Result: NO

Q: Same thing, different compound: N#CCNc1ccc(C(=O)O)cc1
Result: YES

Q: Same thing, different compound: NC[C@@H]1CCN(c2cc3c(cc2F)c(=O)n(N)c(=O)n3Cc2ccc(-c3ccccc3)cc2)C1
Result: YES

Q: Same thing, different compound: N#CC1(C#N)C2=C(CCCC2)NC(c2c(F)cccc2Cl)C1(C#N)C#N (centres undefined)
Result: NO

Q: Same thing, different compound: C#C[C@@]1(O)[C@@H](CO)O[C@@H](n2cc(F)c3c(N)ncnc32)[C@@H]1O
Result: NO

Q: Same thing, different compound: Sc1cccc2cccnc12
Result: NO
